Biological target: Torsin-1A-interacting protein 1 (Homo sapiens) (UniProt Q5JTV8)
Sequence (Q5JTV8 whole entry, looked up): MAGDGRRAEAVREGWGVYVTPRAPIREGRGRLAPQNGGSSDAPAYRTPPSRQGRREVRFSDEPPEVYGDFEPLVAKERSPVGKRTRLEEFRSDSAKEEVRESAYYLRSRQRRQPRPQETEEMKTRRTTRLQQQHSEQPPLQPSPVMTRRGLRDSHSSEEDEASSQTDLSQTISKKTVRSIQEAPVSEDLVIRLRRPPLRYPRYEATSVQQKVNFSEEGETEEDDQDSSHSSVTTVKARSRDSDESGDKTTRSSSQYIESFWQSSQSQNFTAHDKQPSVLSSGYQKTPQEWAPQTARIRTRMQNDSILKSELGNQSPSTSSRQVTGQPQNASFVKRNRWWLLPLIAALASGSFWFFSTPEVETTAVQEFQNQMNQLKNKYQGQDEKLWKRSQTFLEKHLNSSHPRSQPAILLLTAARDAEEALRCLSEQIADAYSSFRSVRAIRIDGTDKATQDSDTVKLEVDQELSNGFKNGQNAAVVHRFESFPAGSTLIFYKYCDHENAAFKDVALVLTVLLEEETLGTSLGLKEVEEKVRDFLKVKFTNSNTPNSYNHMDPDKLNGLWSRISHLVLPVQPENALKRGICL
Experiment: LAP1 binders from COS7 cell lysate, primary screen, small-molecule microarray, 635/667 nm fluorescence (AID 1116)
Conditions: COS7-hLAP1 lysate binding, 635 nm fluorescence, higher = more signal
quantity.measured: composite z-score
No unit in the answer, only the number.

Qu. Returns the measured composite z-score for the input compound. Input: CC(=O)n1cc(C(O)C2C=CC3C(=O)N(C)C(=O)C3N2Nc2ccccc2)c2ccccc21 (configuration not stated)
Ans. 1.36

Qu. # iterate: O=C1OCC=C[C@H]2OC34C=CCN(CCN5CCOCC5)C(=O)[C@H]3N(CCCO)C(=O)[C@@H]4[C@@H]12 (some centres not stated)
Ans. 0.819

Qu. # iterate: `C=CCNC(=O)[C@@H]1[C@H]2C(=O)O[C@H](c3ccccc3)[C@H](c3ccccc3)N2[C@H](c2ccc(OCCO)cc2)[C@@]12C(=O)Nc1ccc(C#Cc3ccc(OC)cc3)cc12`
Ans. 0.781

Qu. # iterate: `[N-]=[N+]=Nc1ccccc1C[C@@]1(C(=O)NCCN2CCOCC2)N=C(c2ccc(OCCCO)cc2)O[C@@H]1c1ccccc1`
Ans. 0.819

Qu. # iterate: `C=CCN1C(=O)[C@@]2(O[C@@H](CCO)[C@H]([Si](C)(C)c3ccc(OC)cc3)[C@H]2C)c2cc(NC(=O)c3ccc(OC)cc3)ccc21`
Ans. -0.419

Qu. # iterate: `COCCn1c(C(=O)N2CCCC2)cc2c1C[C@H]1CN(C(=O)c3ccccc3)[C@@](Cc3ccc(F)cc3)(C(=O)OC)[C@@H]21`
Ans. 2.88

Qu. # iterate: `C=C(COC)/C(=C/C[C@H](OC(=O)c1ccncc1)c1ccc(OCCO)cc1)c1cnc2ccccc2c1`
Ans. 0.78

Qu. # iterate: `O=C1O[C@@H](c2ccccc2)[C@@H](c2ccccc2)N2[C@@H](c3ccc(OCCO)cc3)[C@]3(C(=O)Nc4ccccc43)[C@@H](C(=O)NC[C@H](O)c3ccccc3)[C@H]12`
Ans. 1.3

Qu. # iterate: `CCOC(=O)C[C@H]1[C@H](OC(=O)c2cc3ccccc3oc2=O)[C@@H](NC(=O)C2CCCCC2)c2cc(OCCCO)ccc2N1C(=O)c1ccccc1`
Ans. 0.294

Qu. # iterate: CC(C)C[C@H]1NC(=O)[C@@]23C(=O)N[C@@H](Cc4ccccc4)C2[C@H](C)[C@@]2(C)O[C@H]2C3/C=C/C/C=C\CNC(=O)[C@H](Cc2ccccc2)NC1=O (some centres not stated)
Ans. -0.225

Qu. # iterate: `CC(C)C[C@@H]1NC(=O)[C@@H]2C[C@H](C(=O)NCCCCCN)[C@H](c3cccc(OCCO)c3)N2C1=O`
Ans. 1.36

Qu. # iterate: `COc1ccc(C(=O)Nc2ccc(CN3C(=O)[C@@]4(O[C@@H](CCO)[C@H]([Si](C)(C)c5ccc(OC)cc5)[C@H]4C)c4ccccc43)cc2)cc1`
Ans. 1.12
